- STUDY_SYSTEM: T1, cynomolgus monkey CD8 alpha on primary cynomolgus CD8+ T cells (cynomolgus monkey, UniProt P01732 23-235 (human entry))
- T1 construct: also called Cyno CD8alpha; cyno CD8A
- T1 sequence (P01732 other isoform, or with tags, fused parts or gaps limits assumed): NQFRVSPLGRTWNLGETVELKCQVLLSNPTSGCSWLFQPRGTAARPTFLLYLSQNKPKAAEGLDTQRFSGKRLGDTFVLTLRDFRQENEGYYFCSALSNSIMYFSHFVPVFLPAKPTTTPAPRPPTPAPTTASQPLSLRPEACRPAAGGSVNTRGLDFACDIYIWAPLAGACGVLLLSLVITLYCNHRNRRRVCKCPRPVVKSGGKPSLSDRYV
- EXPERIMENTAL_PROTOCOL: flow cytometry, cyno CD8+ T cells
Heads up, the class ranges for Cyno T-cell Binding 2 uM (MFI) are LOW = under 20000 MFI, MID = from 20000 MFI up to 40000 MFI, HIGH = 40000 MFI and over

- BINDER: "P283ER9P1365_F4 (designed binder, FN3 domain) LPAPKNLVVSRVTEDSARLSWTAPDAAFDSFYIPYRESEFRGEAIALPVPGSERSYDLTGLKPGTKYSVIIIGVKGGEFSQPLGAIFTT"
  CLASS_ASSIGNMENT: "HIGH"

Problem: Which Cyno T-cell Binding 2 uM (MFI) band matches P283GR7P1367_B9 (designed binder, FN3 domain) LPAPKNLVVSRVTEDSARLSWTAPDAAFDSFEIWYHEYHPRGEAIVLTVPSSERSYDLTGLKPGTEYDVVISGVKGGHWSYPLSAIFTT ?
Solution: LOW

Problem: Category lookup for the binder P283FR9P1366_E11 (designed binder, FN3 domain) LPAPKNLVVSRVTEDSARLSWTAPDAAFDSFDIAYPEWPVPGEAIVLTVPGSERSYDLTGLKPGTEYWVIIKGVKGGNISWPLSAIFTT
Solution: LOW

Problem: Band of P283FR9P1366_A9 (designed binder, FN3 domain) LPAPKNLVVSRVTEDSARLSWTAPDAAFDSFNIAYGEYPGPGEAIVLTVPGSERSYDLTGLKPGTEYWVPIWGVKGGELSEPLSAIFTT ?
Solution: LOW
